Values were extracted from ChEMBL document CHEMBL3507680.

- ASSAY: Human HepG2 cell viability assay in 384 well format
- Assay type: toxicity, cell-based
- Design: dose 125 nL, time 70.5 hour; concentration not given beside the values
- CONDITIONS: HepG2 cells, read-out: Inhibition
Reported cytotoxicity at 70.5 h values follow for various compounds
Just the number please, in %, no unit attached.

Solved entries (count: 5):
| COMPOUND | UNIT NAME | cytotoxicity at 70.5 h |
| --- | --- | --- |
| CCc1cc(OC)c(OC)cc1C(=O)Nc1cccnc1 | % | 13 |
| CN(C(=O)c1ccccc1F)[C@@H]1CC[C@@H](O)[C@@H]1O | % | -5.24 |
| CC(Cn1ccnc1)NC(=O)N1CCN(Cc2cccs2)CC1 (configuration not stated) | % | 13.9 |
| Cc1ccc(NC(=O)CCc2ccco2)cc1N1CCOC1=O | % | -10.1 |
| O=S(=O)(NCCN1CC=CC1)c1ccc(Cl)cc1 | % | -6.79 |

Record CC(C)Cc1ccc(S(=O)(=O)NCCCN2CCNC(=O)C2)cc1 , field cytotoxicity at 70.5 h: -3.66

Record CCC(CC)c1cc(CNC(=O)N2CCN(CC)CC2)on1 , field cytotoxicity at 70.5 h: -2.19

Record CCCc1nc(C(C)(C)NC(=O)c2ccnn2C)no1 , field cytotoxicity at 70.5 h: -2.57

Record c1cnc(C2CCCN(Cc3ccsc3)C2)cn1 (configuration not stated) , field cytotoxicity at 70.5 h: -6.09

Record Cc1cnc(C(=O)N2CCC3(CC2)CN(c2ccccn2)CCO3)cn1 , field cytotoxicity at 70.5 h: -6.44

Record O=c1[nH]c(CN(Cc2ccco2)C2CCCC2)nc2ccccc12 , field cytotoxicity at 70.5 h: 5.19

Record CC(C)C[C@H](Nc1nc(C2CCCC2)nc2c1cnn2C)C(N)=O , field cytotoxicity at 70.5 h: -6.77

Record Clc1cccc(N2CCC(NCc3ncc[nH]3)C2)c1 (configuration not stated) , field cytotoxicity at 70.5 h: 0.765

Record CC(C)C(=O)NCCC(=O)N1CCN(c2ccccn2)CC1 , field cytotoxicity at 70.5 h: -4.63

Record CSCc1noc(Cn2ccc3ccccc3c2=O)n1 , field cytotoxicity at 70.5 h: -10.8

Record CCc1csc(CNC2CCN(c3ccc(C)cc3)CC2)n1 , field cytotoxicity at 70.5 h: 2.12

Record COc1ccccc1CN(C)C(=O)C[S+]([O-])Cc1cc(C)on1 (configuration not stated) , field cytotoxicity at 70.5 h: -1.97
